tgt: T1, gp130 on HepG2 B6 cells (UniProt P40189 23-918, limits assumed)
T1 sequence (looked up): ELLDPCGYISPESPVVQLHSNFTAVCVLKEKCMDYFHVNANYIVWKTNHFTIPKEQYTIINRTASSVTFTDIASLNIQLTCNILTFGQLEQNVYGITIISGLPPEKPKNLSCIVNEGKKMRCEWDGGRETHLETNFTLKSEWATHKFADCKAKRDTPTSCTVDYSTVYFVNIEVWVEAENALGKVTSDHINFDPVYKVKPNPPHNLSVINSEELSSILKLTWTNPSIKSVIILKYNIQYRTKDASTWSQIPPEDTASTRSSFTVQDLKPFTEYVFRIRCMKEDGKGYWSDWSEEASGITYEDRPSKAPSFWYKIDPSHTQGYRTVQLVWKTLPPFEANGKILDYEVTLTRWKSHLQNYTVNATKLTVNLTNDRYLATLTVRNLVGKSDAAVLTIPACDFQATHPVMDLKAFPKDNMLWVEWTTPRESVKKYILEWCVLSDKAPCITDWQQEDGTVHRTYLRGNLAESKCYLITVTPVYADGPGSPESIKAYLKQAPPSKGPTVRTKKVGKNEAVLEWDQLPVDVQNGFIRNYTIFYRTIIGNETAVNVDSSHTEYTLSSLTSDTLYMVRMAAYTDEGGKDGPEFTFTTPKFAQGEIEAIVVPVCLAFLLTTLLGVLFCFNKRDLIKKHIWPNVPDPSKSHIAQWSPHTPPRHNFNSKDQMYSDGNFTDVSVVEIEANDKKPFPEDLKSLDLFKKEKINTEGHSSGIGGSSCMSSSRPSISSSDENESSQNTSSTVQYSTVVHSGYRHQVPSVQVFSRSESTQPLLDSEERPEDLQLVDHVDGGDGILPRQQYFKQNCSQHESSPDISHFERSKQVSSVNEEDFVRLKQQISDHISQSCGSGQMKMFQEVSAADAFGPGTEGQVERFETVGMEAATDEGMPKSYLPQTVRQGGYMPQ
experimental details: cell-based or functional assay
readout kind: sPAP HepG2 B6 assay: Expt 1 % (EC50 as % of wild type EC50) (%)
Write it as a number; the unit % goes unstated.

• OSM-GST mutant L14A (ligand, Alanine mutant of m4; also called (7)L14A; 7 L14A; not shown: Its linker is left out) AAIGSCSKEYRVLAGQLQKQTDLMQDTSRLLDPYIRIQGLDVPKLREHCRERPGAFPSEETLRGLGRRGFLQTLNATLGCVLHRLADLEQRLPKAQDLERSGLNIEDLEKLQMARPNILGLRNNIYCMAQLLDNSDTAEPTKAGRGASQPPTPTPASDAFQRKLEGCRFLHGYHRFMHSVGRVFSKWGESPNRSRR = 81

Asked: Item OSM-GST mutant E9A (ligand, not shown: a dimerising Fc or GST; large carriers; small tags and cut ends, Alanine mutant of m4; also called (3)E9A; 3 E9A) AAIGSCSKAYRVLLGQLQKQTDLMQDTSRLLDPYIRIQGLDVPKLREHCRERPGAFPSEETLRGLGRRGFLQTLNATLGCVLHRLADLEQRLPKAQDLERSGLNIEDLEKLQMARPNILGLRNNIYCMAQLLDNSDTAEPTKAGRGASQPPTPTPASDAFQRKLEGCRFLHGYHRFMHSVGRVFSKWGESPNRSRR : provide sPAP HepG2 B6 assay: Expt 1 % (EC50 as % of wild type EC50)
Given back: 98

Asked: Item OSM-GST mutant Y10A (ligand, not shown: a dimerising Fc or GST; large carriers; small tags and cut ends, Alanine mutant of m4; also called (4)Y10A; 4 Y10A) AAIGSCSKEARVLLGQLQKQTDLMQDTSRLLDPYIRIQGLDVPKLREHCRERPGAFPSEETLRGLGRRGFLQTLNATLGCVLHRLADLEQRLPKAQDLERSGLNIEDLEKLQMARPNILGLRNNIYCMAQLLDNSDTAEPTKAGRGASQPPTPTPASDAFQRKLEGCRFLHGYHRFMHSVGRVFSKWGESPNRSRR : provide sPAP HepG2 B6 assay: Expt 1 % (EC50 as % of wild type EC50)
Given back: 134
